- system-tested: proMMP9(20-445;ΔFnII) (SEQ ID NO:6) (Homo sapiens, UniProt P14780, DEL216-390)
- Construct: start methionine (N)
- Sequence (P14780 with tags, fused parts or gaps DEL216-390): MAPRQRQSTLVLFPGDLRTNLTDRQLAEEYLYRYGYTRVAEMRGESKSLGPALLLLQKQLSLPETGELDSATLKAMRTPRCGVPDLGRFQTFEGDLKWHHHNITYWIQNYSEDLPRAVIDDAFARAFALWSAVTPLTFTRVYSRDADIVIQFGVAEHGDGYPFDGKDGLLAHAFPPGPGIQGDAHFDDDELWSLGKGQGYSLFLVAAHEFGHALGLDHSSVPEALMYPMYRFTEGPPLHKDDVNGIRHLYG
- assay-summary: ThermoFluor with proMMP9(20-445;ΔFnII)
- cond: read-out: proMMP9(20-445; ΔFnII) (SEQ ID NO: 6) binding
Record form. Attribute: pKd. Fill in for each entry.
Please note pKd is a logarithmic value: minus log10 of concentration in mol/L. Answer with that number alone.

May I ask what pKd has been recorded for COc1ccc(F)cc1Nc1nc(-c2ccc(OCCN3CCN(C)CC3)cc2)cs1 ?
5.82

Requested read-out: pKd. Entry: NS(=O)(=O)c1cc2c(c(Nc3nc(-c4ccc(OCCN5CCC(F)CC5)cc4)cs3)c1)OCC2
5.59

// returns reported pKd for input CC(C)Oc1ccc(S(N)(=O)=O)cc1Nc1nc(-c2ccc(CN3CCN(C)CC3)cc2)cs1
7.59

Look up pKd: COc1ccc(F)cc1Nc1nc(-c2ccc(CN3CCC(F)CC3)cc2)cs1
4.35

Quick check: pKd of CC(C)Oc1ccc(S(N)(=O)=O)cc1Nc1nc(-c2ccc(C3CCN(C)CC3)cc2)cs1 ?
7.57

Look up pKd for this compound: CCOc1ccncc1Nc1nc(-c2ccc(OCCN3CCC(F)CC3)cc2)cs1
5.74

Entry CC(C)Oc1ccc(S(N)(=O)=O)cc1Nc1nc(-c2ccc(N3CCN(Cc4ccccc4)CC3)cc2)cs1 : reported pKd = ?
6.39

Tell me the measured pKd of CC(C)Oc1ccc(S(N)(=O)=O)cc1Nc1nc(-c2ccc(OCCN3CCN(C4CC4)CC3)cc2)cs1 , please.
7.54

Quick check: pKd of COc1ccc(F)cc1Nc1nc(-c2ccc(OCCCN3CCOCC3)cc2)cs1 ?
4.36

So what's the measured pKd for this one? CCOc1ccncc1Nc1nc(-c2ccc(C3=CCN(C(C)C)CC3)cc2)cs1
6.29

What value of pKd has been recorded for this entry: CC(C)Oc1ccc(C(N)=O)cc1Nc1nc(-c2ccc(C3=CCN(C(C)C)CC3)cc2)cs1
7.89

Form field: reported pKd of CC(C)Oc1ccc(C(N)=O)cc1Nc1nc(-c2ccc(OCCN3CCC(F)(F)CC3)cc2)cs1
7.00

###

- system-tested: full-length proMMP9(1-707) (SEQ ID NO:1) (Homo sapiens, UniProt P14780, R574P)
- Construct: E. coli (MMP3)
- assay-summary: proMMP9/MMP3 P126 Activation Assay
- cond: proMMP9(1-707) from HEK293 cells activated by catalytic MMP3
- Description: proMMP9/MMP3 P126 Activation Assay The reaction volume was 50 μL. […] Reactivity of residual MMP3 towards P-126 substrate was minimal under these conditions.
endpoint: pIC50
In textbook form, pIC50 equals minus log to base ten of the concentration in mol/L.

Using the record for CC(C)Oc1ccc(C(N)=O)cc1Nc1nc(-c2ccc(OCCCN3CCOCC3)cc2)cs1 [Example 46] , report its pIC50.
7.21

I am curious: what pIC50 value has been reported for CC(C)Oc1ccc(C(N)=O)cc1Nc1nc(-c2ccc(CN3CC[C@@H](F)C3)cc2)cs1 [Example 52] ?
6.96

// lookup pIC50 for CC(C)Oc1ccc(S(N)(=O)=O)cc1Nc1nc(-c2ccc(OCCN3CCC(F)CC3)cc2)cs1 [Example 34]
6.92

Param item = CC(C)Oc1ccc(S(N)(=O)=O)cc1Nc1nc(-c2ccc(OCCN3CCN(C4CC4)CC3)cc2)cs1 [Example 45] ; retrieve measured pIC50.
7.39

Fill in the blank: the reported pIC50 of CC(C)Oc1ccc(C(N)=O)cc1Nc1nc(-c2ccc(N3CCNCC3)cc2)cs1 [Example 7] is ____.
7.55

Would you kindly share the measured pIC50 for CC(C)Cc1ccc(C(N)=O)cc1Nc1nc(-c2ccc(OCCN3CCC(F)CC3)cc2)cs1 [Example 40] ?
5.89

Quick one: pIC50 for CCN1CC=C(c2ccc(-c3csc(Nc4cc(S(N)(=O)=O)ccc4OC(C)C)n3)cc2)CC1 [Example 14] ?
7.47

Query (compound): CC(C)Oc1ccc(S(N)(=O)=O)cc1Nc1nc(-c2ccc(N3CCNCC3)cc2)cs1 [Example 1] ; field requested: pIC50
7.70

Given the compound CC(C)Oc1ccc(S(N)(=O)=O)cc1Nc1nc(-c2ccc(C3=CCN(C)CC3)cc2)cs1 [Example 13] , what is its reported pIC50?
7.62

May I ask what pIC50 has been recorded for CC(C)Oc1ccc(S(N)(=O)=O)cc1Nc1nc(-c2ccc(C3CCN(C)CC3)cc2)cs1 [Example 25] ?
7.16

Which pIC50 value is on record for CC(C)Oc1ccc(C(N)=O)cc1Nc1nc(-c2ccc(N3CCN(C)CC3)cc2)cs1 [Example 8] ?
6.96

# get_value(readout='pIC50', item= CCN1CCC(c2ccc(-c3csc(Nc4cc(S(N)(=O)=O)ccc4OC(C)C)n3)cc2)CC1 [Example 26] )
7.36

For CC(C)Oc1ccc(S(N)(=O)=O)cc1Nc1nc(-c2ccc(N3CCNCC3)c(Br)c2)cs1 [Example 2] , what is its reported pIC50?
7.17

I would be grateful if you could share the reported pIC50 for NC(=O)c1ccc(OC(F)(F)F)c(Nc2nc(-c3ccc(OCCN4CCC(F)CC4)cc3)cs2)c1 [Example 37] .
6.44

Record request: pIC50 value, item NS(=O)(=O)c1ccc(OC(F)(F)F)c(Nc2nc(-c3ccc(OCCN4CCC(F)(F)CC4)cc3)cs2)c1 [Example 33]
4.80

###

- system-tested: full-length proMMP9(1-707) (SEQ ID NO:1) (Homo sapiens, UniProt P14780, R574P)
- Construct: E. coli (MMP3)
- assay-summary: proMMP9/MMP3 P126 Activation Assay
- cond: proMMP9(1-707) from HEK293 cells activated by catalytic MMP3
- Procedure: proMMP9/MMP3 P126 Activation Assay The reaction volume was 50 μL. […] Reactivity of residual MMP3 towards P-126 substrate was minimal under these conditions.
Entries whose IC50 is below 200 nM take y; entries at or above 200 nM take n.

Regarding CC(C)Oc1ccc(C(N)=O)cc1Nc1nc(-c2ccc(OCCN3CCN(C4CC4)CC3)cc2)cs1 , kindly confirm whether its IC50 is beneath 200 nM.
y

In plain terms, does CCOc1ccncc1Nc1nc(-c2ccc(OCCN3CCN(C)CC3)cc2)cs1 come in under 200 nM for IC50?
y

Does the reported IC50 of the following compound sit strictly below 200 nM? NS(=O)(=O)c1ccc(OC(F)(F)F)c(Nc2nc(-c3ccc(OCCN4CCC(F)CC4)cc3)cs2)c1
n

Hello, I'm reviewing records and need to know if IC50 of CC(C)Oc1ccc(C(N)=O)cc1Nc1nc(-c2ccc(C3=CCN(C)CC3)cc2)cs1 is below 200 nM. Could you check?
y

Is it true that IC50 reported for CC(C)Oc1ccc(S(N)(=O)=O)cc1Nc1nc(-c2ccc(CN3CCN(C)CC3)cc2)cs1 is less than 200 nM?
y

# strict comparison: is reported IC50 < 200 nM? input = CCOc1ccncc1Nc1nc(-c2ccc(C3=CCN(C)CC3)cc2)cs1
y

Would you kindly verify if IC50 of COc1ccc(F)cc1Nc1nc(-c2ccc(CN3CC[C@@H](F)C3)cc2)cs1 is strictly less than 200 nM?
n

IC50 strictly < 200 nM for this compound? CC(C)Oc1ccc(S(N)(=O)=O)cc1Nc1nc(-c2ccc(CN3CCOCC3)cc2)cs1
n

Field: below-cutoff. Rule: recorded IC50 strictly less than 200 nM. Subject: CCN1CC=C(c2ccc(-c3csc(Nc4cc(C(N)=O)ccc4OC(C)C)n3)cc2)CC1
y

Consider the compound NS(=O)(=O)c1ccc(OC(F)(F)F)c(Nc2nc(-c3ccc(OCCN4CCOCC4)cc3)cs2)c1 . Is its IC50 strictly less than 200 nM?
n

Confirm or reject: IC50 of CCN1CCN(c2ccc(-c3csc(Nc4cc(S(N)(=O)=O)ccc4OC(C)C)n3)cc2)CC1 lies strictly below 200 nM
y

In plain terms, does CC(C)Oc1ccc(C(N)=O)cc1Nc1nc(-c2ccc(CN3CCN(C4CC4)CC3)cc2)cs1 come in under 200 nM for IC50?
y

Identify whether the compound CC(C)Oc1ccc(C(N)=O)cc1Nc1nc(-c2ccc(CN3CCOCC3)cc2)cs1 records IC50 below 200 nM.
n

Please indicate whether the reported IC50 of CCOc1ccncc1Nc1nc(-c2ccc(C3=CCNCC3)cc2)cs1 is strictly below 200 nM.
y

I'd appreciate it if you could check whether CC(C)Oc1ccc(S(N)(=O)=O)cc1Nc1nc(-c2ccc(C3CCN(C(C)C)CC3)cc2)cs1 has IC50 smaller than 200 nM.
y

Strictly below 200 nM in IC50? CC(C)Oc1ccc(S(N)(=O)=O)cc1Nc1nc(-c2ccc(CN3CCC(F)CC3)cc2)cs1
y

Source of measurements: patent US20120302569A1
